Value source: paper PMC10397247

TARGET SYSTEM: T1, 4H982-AA
T1 chain: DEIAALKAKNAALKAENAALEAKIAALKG
TEST DETAILS: two-hybrid library CCmax;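 further: natural log of median RNA to DNA barcode read ratio; higher means stronger binding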
MEASUREMENT CONDITIONS: mean of both orientations
Entries and their interaction score

{"BINDER": "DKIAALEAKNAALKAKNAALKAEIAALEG [4H2553-AA]", "interaction score": 1.15}
{"BINDER": "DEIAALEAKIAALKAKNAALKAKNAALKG [4H384-AA]", "interaction score": -1.63}
{"BINDER": "DEIAALEAKIAALKAENAALEAENAALKG [4H340-AA]", "interaction score": -1.24}
{"BINDER": "DKNAALEAKIAALEAKNAALEAEIAALKG [4H3378-AA]", "interaction score": -1.5}
{"BINDER": "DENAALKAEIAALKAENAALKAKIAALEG [4H1629-AA]", "interaction score": -1.55}
{"BINDER": "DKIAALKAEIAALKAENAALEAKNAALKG [4H2648-AA]", "interaction score": -0.309}
{"BINDER": "DKNAALEAKIAALKAENAALEAKIAALEG [4H3413-AA]", "interaction score": -1.39}
{"BINDER": "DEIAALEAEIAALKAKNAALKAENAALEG [4H123-AA]", "interaction score": -1.15}
{"BINDER": "DKNAALEAEIAALKAENAALKAEIAALKG [4H3162-AA]", "interaction score": -1.88}
{"BINDER": "DKNAALKAEIAALEAEIAALEAENAALKG [4H3588-AA]", "interaction score": -1.37}
{"BINDER": "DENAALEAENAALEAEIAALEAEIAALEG [4H1153-AA]", "interaction score": -0.675}
{"BINDER": "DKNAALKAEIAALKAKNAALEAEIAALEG [4H3697-AA]", "interaction score": -1.01}
{"BINDER": "DKNAALKAEIAALEAKIAALKAKNAALEG [4H3631-AA]", "interaction score": -1.91}
{"BINDER": "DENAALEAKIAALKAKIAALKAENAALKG [4H1388-AA]", "interaction score": -2.08}
